Several publications report Ki on Melatonin receptor type 1B (Homo sapiens, UniProt P49286); those values are gathered here.
Sequence (P49286 whole entry): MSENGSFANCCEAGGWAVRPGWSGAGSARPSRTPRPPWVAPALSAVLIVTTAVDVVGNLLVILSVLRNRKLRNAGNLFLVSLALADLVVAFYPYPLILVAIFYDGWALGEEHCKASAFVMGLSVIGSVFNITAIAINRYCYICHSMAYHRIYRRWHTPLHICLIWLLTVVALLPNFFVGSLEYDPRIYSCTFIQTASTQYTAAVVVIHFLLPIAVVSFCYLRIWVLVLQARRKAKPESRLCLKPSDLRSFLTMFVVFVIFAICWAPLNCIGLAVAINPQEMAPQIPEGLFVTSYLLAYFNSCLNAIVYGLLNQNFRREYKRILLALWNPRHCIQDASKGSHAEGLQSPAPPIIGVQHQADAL
Assay readout: Ki (nM)

>>> quantitative_result("CC(=O)NC(C)CSc1ccccc1 (centres undefined)")
6760
>>> quantitative_result("CCCC(=O)NCC(C)Sc1cccc(OC)c1 (centres undefined)")
5.01
>>> quantitative_result("CCCC(=O)NC[C@@H]1C[C@H]1c1cccc2nc(CC)oc12")
0.33
>>> quantitative_result("CCCC(=O)Nc1ccccc1Oc1cccc(OC)c1")
130
>>> quantitative_result("COc1ccc2c(c1)c(CCNC(C)=O)c1n2CC2Cc3ccccc3N2C1 (centres undefined)")
65.2
>>> quantitative_result("COc1ccc2[nH]c(CN3CCc4ccccc4C3)c(CCNC(C)=O)c2c1")
21.4
>>> quantitative_result("COc1ccc2[nH]cc(Cc3n[nH]c(=O)n3C)c2c1")
560
>>> quantitative_result("CCCC(=O)Nc1ccc(N(C)c2cccc3c2CCO3)cc1")
0.49
>>> quantitative_result("CC(=O)N[C@@H](C)COc1ccccc1")
4570
>>> quantitative_result("CCCC(=O)NCC1CCc2cccc3ccc(OC)c1c23 (centres undefined)")
0.069
>>> quantitative_result("CCCC(=O)NC[C@@H]1C[C@H]1c1cccc2nc(CCC)oc12")
0.04
>>> quantitative_result("COc1cc([N+](=O)[O-])c2[nH]cc(CCNC(C)=O)c2c1")
29
>>> quantitative_result("COc1ccc2[nH]cc(CCNC(=O)CCCCCCCCC(=O)NCCc3c[nH]c4ccc(OC)cc34)c2c1")
573
>>> quantitative_result("CCCC(=O)NCCCc1cccc2nc(C(C)C)oc12")
16
>>> quantitative_result("O=C(NC[C@@H]1C[C@H]1c1cccc2c1C[C@@H](CCCCc1ccccc1)O2)C1CC1")
5
>>> quantitative_result("COc1ccc2cccc(CCC(=O)NCCF)c2n1")
0.3
>>> quantitative_result("COc1cccc(/C(=C\\CNC(=O)C2CCC2)c2ccccc2)c1")
1.55
>>> quantitative_result("COc1ccc2nc(-c3ccccc3)c(CC(CO)NC(C)=O)n2c1 (centres undefined)")
7980
>>> quantitative_result("CC(=O)NCCC1=C(c2ccc(C(C)(C)C)cc2)Cc2ccc3c(c21)CCO3")
0.77
>>> quantitative_result("CCCC(=O)Nc1ccc(Cc2cccc(OC)c2)cc1")
0.12
>>> quantitative_result("COc1cccc(/C(=C/CNC(C)=O)c2ccccc2)c1")
0.219
>>> quantitative_result("CCNC(=O)NCCCc1cccc2oc(CCCCc3ccccc3)cc12")
52
>>> quantitative_result("CCCc1nc2cccc(CCCNC(=O)C(C)C)c2o1")
29
>>> quantitative_result("CCC(=O)NCCCc1cccc2nc(C)oc12")
2.8
